# System: CCRF-CEM leukemia
# ASSAY PROTOCOL: NCI-60 one-dose screen, 48 h (100 = growth as untreated, 0 = no growth, -100 = all killed)
# TEST CONTEXT: 10 µM unless noted
About 83,000 compounds went through this panel and 20% of them were active in at least one assay; those are over-represented in the sample as a whole.
METRIC NAME: growth (%)
Quick note: give the figure in %, leave out the unit.

>>> print(df.to_string())
                    structure_smiles_string  metric_name  unit_string  observed_measurement
0    COc1ccc(OC)c2c1[nH]c(=O)c1c3ncccc3cn21       growth            %                  36.5
1  CC(C)=C[C@@H]1c2c(c3ccccc3n(C)c2=O)O[C@H]2c3c(c4ccccc4n(C)c3=O)OC(C)(C)[C@@H]12       growth            %                  46.6
2  Cc1ccccc1NC(=O)N/C(N)=N/c1nc(-c2cccc([N+](=O)[O-])c2)cs1       growth            %                  35.9
3  Clc1ccc(-c2c3ccc(=[N+]4CCCCC4)cc-3oc3cc(N4CCCCC4)ccc23)cc1       growth            %                  0.54

Next molecule, please.
Task item: Which measured growth belongs to O=C(Nc1cccc(Oc2nnc(Cl)c3ccccc23)c1)Nc1ccc(Cl)c(C(F)(F)F)c1 , tested on CCRF-CEM leukemia?
Reply: -5.44
